- Subject Of Test: 5-HT6 (Homo sapiens)
- Sequence (P50406 whole entry): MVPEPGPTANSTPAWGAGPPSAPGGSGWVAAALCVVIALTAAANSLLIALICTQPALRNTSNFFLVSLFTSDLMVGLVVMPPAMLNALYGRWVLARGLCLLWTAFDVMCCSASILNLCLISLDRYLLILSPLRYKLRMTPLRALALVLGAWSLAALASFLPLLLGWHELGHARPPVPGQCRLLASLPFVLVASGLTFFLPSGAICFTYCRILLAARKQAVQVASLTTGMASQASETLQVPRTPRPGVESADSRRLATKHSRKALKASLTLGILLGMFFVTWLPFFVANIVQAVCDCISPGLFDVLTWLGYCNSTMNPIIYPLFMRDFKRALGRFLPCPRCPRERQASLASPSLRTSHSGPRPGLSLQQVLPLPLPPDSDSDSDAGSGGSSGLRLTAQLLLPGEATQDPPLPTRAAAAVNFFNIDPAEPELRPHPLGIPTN
- Assay Method Text: PDSP screening affinity 5-HT6
- Assay type: binding
- Condition: 5-HT6 affinity
Let's look at some compounds and their measured Ki.
Readout Name: Ki

INSERT INTO measurements (sample_smiles, result) VALUES
  ('COc1ccc2[nH]cc(CCNCc3cccc(C(F)(F)F)c3)c2c1', '87 nM'),
  ('COc1ccc2[nH]cc(CCNCc3ccccc3OC)c2c1', '87 nM'),
  ('COc1ccc(CNCCc2cc(OC)c(I)cc2OC)cc1', '75 nM');

---

- Subject Of Test: 5-HT2B (Homo sapiens, UniProt P41595)
- Sequence (P41595 whole entry): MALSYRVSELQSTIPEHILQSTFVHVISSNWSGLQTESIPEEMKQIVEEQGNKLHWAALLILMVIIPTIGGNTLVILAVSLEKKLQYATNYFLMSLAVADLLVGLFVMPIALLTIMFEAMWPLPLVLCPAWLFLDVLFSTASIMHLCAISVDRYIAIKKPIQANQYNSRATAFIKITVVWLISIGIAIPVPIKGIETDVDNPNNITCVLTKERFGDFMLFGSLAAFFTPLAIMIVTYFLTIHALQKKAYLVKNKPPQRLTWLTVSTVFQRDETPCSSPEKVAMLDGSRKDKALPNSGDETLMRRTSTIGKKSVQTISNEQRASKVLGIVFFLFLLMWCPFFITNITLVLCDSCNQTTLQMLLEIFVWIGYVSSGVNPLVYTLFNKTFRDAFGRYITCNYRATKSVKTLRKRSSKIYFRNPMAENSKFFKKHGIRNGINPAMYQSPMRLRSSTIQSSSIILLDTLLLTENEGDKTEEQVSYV
- Assay Method Text: PDSP screening affinity 5-HT2B
- Assay type: binding
- Condition: 5-HT2B pKi ± SEM
Readout Name: Ki (nM)

INSERT INTO measurements (compound, unit_descriptor, recorded_number) VALUES
  ('COc1ccc2[nH]cc(CCNCc3ccccc3OC)c2c1 [Compound 5a]', 'nM', 9.12),
  ('COc1ccc2[nH]cc(CCNCc3cccc(Cl)c3)c2c1 [Compound 5h]', 'nM', 6.92),
  ('COc1cc(CCNCc2cccc(Br)c2)c(OC)cc1I [Compound 4d]', 'nM', 12.9),
  ('COc1ccc(CNCCc2cc(OC)c(I)cc2OC)cc1 [Compound 4b]', 'nM', 16.6);

// provenance: paper PMC4505863
